All figures here come from patent US12209087B2.

Here the recorded IC50 is given for each entry.
target: full length AKT E17K (Homo sapiens, UniProt P31749, E17K); construct: host or cells: HEK-293 (ATCC CRL-1573); experiment: NanoBRET Target Engagement (TE) Assay; format: cell-based; settings: competitive tracer displacement in living cells, read-out: AKT1 E17K IC50
Sequence (P31749 whole entry E17K): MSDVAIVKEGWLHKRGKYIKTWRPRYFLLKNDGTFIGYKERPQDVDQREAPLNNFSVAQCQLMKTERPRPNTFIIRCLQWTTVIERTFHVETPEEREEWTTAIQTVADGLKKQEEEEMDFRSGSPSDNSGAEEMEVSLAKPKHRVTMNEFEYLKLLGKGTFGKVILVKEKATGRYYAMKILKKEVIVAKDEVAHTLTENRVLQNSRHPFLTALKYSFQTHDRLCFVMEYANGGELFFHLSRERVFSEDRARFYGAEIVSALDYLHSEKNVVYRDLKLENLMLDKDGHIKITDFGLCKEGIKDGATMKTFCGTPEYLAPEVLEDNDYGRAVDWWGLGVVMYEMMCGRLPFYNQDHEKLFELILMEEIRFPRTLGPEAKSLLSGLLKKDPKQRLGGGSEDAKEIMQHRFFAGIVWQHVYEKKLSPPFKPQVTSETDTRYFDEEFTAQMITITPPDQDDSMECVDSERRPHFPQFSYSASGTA

Here is how some compounds turned out for IC50.
{"compound": "N#Cc1cc(N2C3CCC2CN(Cc2ccc(-n4c(-c5cccnc5N)nc5ccc(-c6ccccc6)nc54)cc2)C3)ncn1 [Example 205]", "outcome_measure": "IC50", "result": "60 to 600 nM"}
{"compound": "N#Cc1nccc(NC2CCN(Cc3ccc(-n4c(-c5cccnc5N)nc5ccc(-c6ccc(Cl)cc6)nc54)cc3)CC2)n1 [Example 308]", "outcome_measure": "IC50", "result": "< 15 nM"}

Case N#Cc1cncc(C(=O)NCc2ccc(-n3c(-c4cccnc4N)nc4cccnc43)cc2)c1 [Example 123] , full length AKT E17K (Homo sapiens, UniProt P31749, E17K), IC50 recorded as 600 to 10000 nM

Case N#Cc1ccnc(N2CCN(Cc3ccc(-n4c(-c5cccnc5N)nc5ccc(-c6ccccc6)nc54)cc3)CC2)n1 [Example 68] , full length AKT E17K (Homo sapiens, UniProt P31749, E17K), IC50 recorded as < 15 nM

Case N#Cc1nc2cc(F)cc(C(=O)N3CCN(Cc4ccc(-n5c(-c6cccnc6N)nc6cccnc65)cc4)CC3)c2s1 [Example 175] , full length AKT E17K (Homo sapiens, UniProt P31749, E17K), IC50 recorded as 600 to 10000 nM

----------
target: full length AKT E17K (Homo sapiens, UniProt P31749, E17K); construct: host or cells: HEK-293 (ATCC CRL-1573); assay: NanoBRET Target Engagement (TE) Assay; type: cell-based; conditions: competitive tracer displacement in living cells, read-out: AKT1 E17K IC50
Here the recorded IC50 is given for each entry.

Here is how some molecules turned out for IC50.
{"chemical_string": "N#Cc1ncc(N2CCN(Cc3ccc(-n4c(-c5cccnc5N)nc5ccc(-c6ccccc6)nc54)cc3)CC2)cn1", "target_under_test": "full length AKT E17K (Homo sapiens, UniProt P31749, E17K)", "result": "15 to 60 nM"}
{"chemical_string": "N#Cc1ccc(C(=O)NC2CCN(Cc3ccc(-n4c(-c5cccnc5N)nc5cc(-c6ccccc6)cnc54)cc3)CC2)cn1", "target_under_test": "full length AKT E17K (Homo sapiens, UniProt P31749, E17K)", "result": "600 to 10000 nM"}
{"chemical_string": "N#Cc1ccnc(N2CCN(Cc3ccc(-n4c(-c5cccnc5N)nc5ccc(-c6ccccc6)nc54)cc3)CC23CC3)n1", "target_under_test": "full length AKT E17K (Homo sapiens, UniProt P31749, E17K)", "result": "60 to 600 nM"}

Turning to the following molecule.
Form field IC50, entry N#Cc1cncc(NC2CCN(Cc3ccc(-n4c(-c5cccnc5N)nc5ccc(-c6ccccc6)nc54)cc3)CC2)n1 : < 15 nM

----------
biological target: full length AKT E17K (Homo sapiens, UniProt P31749, E17K); construct: host or cells: HEK-293 (ATCC CRL-1573); experiment: NanoBRET Target Engagement (TE) Assay; format: cell-based; conditions: competitive tracer displacement in living cells, read-out: AKT1 E17K IC50
pIC50: −log10 of the molar value.
Here the recorded pIC50 is given for each entry.

{"compound": "N#Cc1cc(N2CCN(Cc3ccc(-n4c(-c5cccnc5N)nc5ccc(N6CCOCC6)nc54)cc3)CC2)ncn1 [Example 237]", "pIC50": "7.22 to 7.82"}

Form field pIC50, entry CC(=O)Nc1cccc(-c2ccc3nc(-c4cccnc4N)n(-c4ccc(CN5CCN(c6cc(C#N)ncn6)CC5)cc4)c3n2)c1 [Example 41] : > 7.82

Form field pIC50, entry N#Cc1cc(C(=O)NCc2ccc(-n3c(-c4cccnc4N)nc4cccnc43)cc2)ccn1 [Example 122] : 5.00 to 6.22

Form field pIC50, entry N#Cc1cncc(N2CCN(Cc3ccc(-n4c(-c5cccnc5N)nc5cccnc54)cc3)CC2)c1 [Example 16] : 5.00 to 6.22

Form field pIC50, entry N#Cc1nccc(NC2CCN(Cc3ccc(-n4c(-c5cccnc5N)nc5ccc(C6CCOCC6)nc54)cc3)CC2)n1 [Example 299] : > 7.82

Form field pIC50, entry N#Cc1ccnc(OC2CCN(Cc3ccc(-n4c(-c5cccnc5N)nc5ccc(-c6ccccc6)nc54)cc3)CC2)c1 [Example 8] : 5.00 to 6.22

Form field pIC50, entry C[C@@H]1CN(Cc2ccc(-n3c(-c4cccnc4N)nc4ccc(-c5ccccc5)nc43)cc2)C[C@@H](C)N1c1ncnc(C#N)n1 [Example 256] : 7.22 to 7.82

Form field pIC50, entry N#Cc1ccnc(NC2CCN(Cc3ccc(-n4c(-c5cccnc5N)nc5ccc(-c6ccccc6)nc54)cc3)CC2)n1 [Example 90] : > 7.82

Form field pIC50, entry N#Cc1cc(C(=O)N2CCN(Cc3ccc(-n4c(-c5cccnc5N)nc5cccnc54)cc3)CC2)ncn1 [Example 114] : 6.22 to 7.22

Form field pIC50, entry N#Cc1cncc(NCc2ccc(-n3c(-c4cccnc4N)nc4cccnc43)cc2)c1 [Example 131] : 5.00 to 6.22

Form field pIC50, entry N#Cc1ccc(C(=O)NC2CCN(Cc3ccc(-n4c(-c5cccnc5N)nc5cccnc54)cc3)CC2)cn1 [Example 24] : 5.00 to 6.22

Form field pIC50, entry Cc1ccc2nc(-c3cccnc3N)n(-c3ccc(CN4CCC(Nc5ccnc(C#N)n5)CC4)cc3)c2n1 [Example 280] : > 7.82

Form field pIC50, entry N#Cc1cc(NC2CCN(Cc3ccc(-n4c(-c5cccnc5N)nc5ccc(N6CCOCC6)nc54)cc3)CC2)ncn1 [Example 241] : 7.22 to 7.82

Form field pIC50, entry N#Cc1cc(N2CCN(Cc3ccc(-n4c(-c5cccnc5N)nc5ccc(-c6ccccc6)nc54)cc3)CC2)ncn1 [Example 78] : > 7.82

Form field pIC50, entry C[C@@H]1CN(Cc2ccc(-n3c(-c4cccnc4N)nc4ccc(-c5ccccc5)nc43)cc2)C[C@H](C)N1c1ncnc(C#N)n1 [Example 277] : 7.22 to 7.82

Form field pIC50, entry N#Cc1ccnc(N2CC3CCC2CN3Cc2ccc(-n3c(-c4cccnc4N)nc4ccc(-c5ccccc5)nc43)cc2)n1 (stereo not shown) [Example 220] : 6.22 to 7.22

Form field pIC50, entry CC(=O)Nc1cccc(-c2ccc3nc(-c4cccnc4N)n(-c4ccc(CN5CCN(c6nccc(C#N)n6)CC5)cc4)c3n2)c1 [Example 46] : > 7.82

Form field pIC50, entry N#Cc1ccnc(NC2CCN(Cc3ccc(-n4c(-c5cccnc5N)nc5ccc(N6CCOCC6)nc54)cc3)CC2)n1 [Example 240] : 7.22 to 7.82

Form field pIC50, entry N#Cc1ccnc(N2CCCN(Cc3ccc(-n4c(-c5cccnc5N)nc5ccc(-c6ccccc6)nc54)cc3)CC2)n1 [Example 228] : 7.22 to 7.82

Form field pIC50, entry CC(=O)Nc1cccc(-c2ccc3nc(-c4cccnc4N)n(-c4ccc(CN5CCN(c6ccnc(C#N)n6)CC5)cc4)c3n2)c1 [Example 44] : > 7.82

Form field pIC50, entry N#Cc1cccc(NC2CCN(Cc3ccc(-n4c(-c5cccnc5N)nc5ccc(-c6ccccc6)nc54)cc3)CC2)n1 [Example 86] : 6.22 to 7.22

Form field pIC50, entry N#Cc1ncc(C(=O)NCc2ccc(-n3c(-c4cccnc4N)nc4cccnc43)cc2)cn1 [Example 119] : 5.00 to 6.22

Form field pIC50, entry N#Cc1cnnc(N2CCN(Cc3ccc(-n4c(-c5cccnc5N)nc5cccnc54)cc3)CC2)c1 [Example 22] : 5.00 to 6.22

Form field pIC50, entry N#Cc1nccnc1C(=O)N1CCN(Cc2ccc(-n3c(-c4cccnc4N)nc4cccnc43)cc2)CC1 [Example 164] : 5.00 to 6.22
